system: California/04/2009 (H1N1); assay: microbe, parasite or virus in culture; format: cell-based; settings: Influenza A virus, H1N1; MDCK cells, 3 to 4 days; read-out: 50% effective concentration (EC50)
pEC50: −log10 of the molar value.
Value type: pEC50

{"columns": ["Molecule", "Numeric readout"],
 "data": [
  ["CCC(CC)O[C@@H]1C=C(C(=O)O)C[C@H](NC(=N)N)[C@H]1NC(C)=O [GOC, 4-guanidinio oseltamivir carboxylate]", 7.80]
]}

====

assay: in vivo; conditions: mouse, po, 10 mg/kg, Tmax

{"columns": ["Compound", "Tmax / h"],
 "data": [
  ["CCC(CC)O[C@@H]1C=C(C(=O)O)C[C@H](NC(=N)N)[C@H]1NC(C)=O [GOC, 4-guanidinio oseltamivir carboxylate]", 3]
]}

Origin of measurements: patent US20130023585A1
